tested on: barnyardgrass (Echinochloa crus-galli (L.) Beauv.) (BG); assay: Postemergence herbicide test, foliar spray, barnyardgrass; format: in vivo; details: 3000 ppm foliar spray to drip point, treated six days after emergence, two weeks after treatment
Would you please tag the item Met when its Percent Weed Control BG is 30% or above, and Not met when it is below?

Answered cases to consult:
smilesNotation: FC(F)(F)C(F)(F)C1=NC(C(F)(F)F)(C(F)(F)F)N=C(c2ccc(Br)cc2)O1
studySystem: barnyardgrass (Echinochloa crus-galli (L.) Beauv.) (BG)
classLabel: Met
--
smilesNotation: FC(F)(F)C(F)(F)C1=NC(C(F)(F)F)(C(F)(F)F)N=C(c2ccc(Cl)cc2)O1
studySystem: barnyardgrass (Echinochloa crus-galli (L.) Beauv.) (BG)
classLabel: Not met
--
smilesNotation: FC(F)(F)C(F)(F)C1=NC(C(F)(F)F)(C(F)(F)F)N=C(c2cccc(Cl)c2)O1
studySystem: barnyardgrass (Echinochloa crus-galli (L.) Beauv.) (BG)
classLabel: Met

Next item in the queue.
# bool: Percent Weed Control BG of FC(F)(F)C1=NC(C(F)(F)F)(C(F)(F)F)N=C(c2cccc(Cl)c2)O1 >= 30%
Met

----------
system: velvetleaf (Abutilon theophrasti Medik.) (VL); experiment: Preemergence herbicide test, soil drench, velvetleaf; assay type: in vivo; details: Abutilon theophrasti, 336 h, 10 lbs/A (11.2 kg/ha) soil drench, two weeks after treatment, vs untreated checks, read-out: Percent Weed Control VL
property: pest or weed control at 11208.5 g/ha (%)
Supply the numeric figure in %, leaving out any unit text.

compound: FC(F)(F)C1=NC(C(F)(F)F)(C(F)(F)F)N=C(c2ccc(Br)cc2)O1 [Compound 2]
pest or weed control at 11208.5 g/ha / %: 100

Look up pest or weed control at 11208.5 g/ha for this compound: FC(F)(F)C(F)(F)C1=NC(C(F)(F)F)(C(F)(F)F)N=C(c2ccccc2Cl)O1 [Compound 12]
100

Moving on to the next compound: FC(F)(F)C(F)(F)C1=NC(C(F)(F)F)(C(F)(F)F)N=C(c2ccc(Cl)cc2)O1 [Compound 24]
100

Moving on to the next compound: FC(F)(F)C1=NC(C(F)(F)F)(C(F)(F)F)N=C(c2ccc(Cl)cc2)O1 [Compound 5]
100

Moving on to the next compound: FC(F)(F)Oc1ccc(C2=NC(C(F)(F)F)(C(F)(F)F)N=C(C(F)(F)F)O2)cc1 [Compound 8]
100

Moving on to the next compound: FC(F)(F)C(F)(F)C1=NC(C(F)(F)F)(C(F)(F)F)N=C(c2ccc(Br)cc2)O1 [Compound 25]
100

Moving on to the next compound: Fc1ccccc1C1=NC(C(F)(F)F)(C(F)(F)F)N=C(C(F)(F)F)O1 [Compound 3]
100

Moving on to the next compound: FC(F)(F)C1=NC(C(F)(F)F)(C(F)(F)F)N=C(c2cccc(Cl)c2)O1 [Compound 4]
100

Moving on to the next compound: FC(F)(F)C(F)(F)C1=NC(C(F)(F)F)(C(F)(F)F)N=C(c2cccc(Cl)c2)O1 [Compound 13]
100

Moving on to the next compound: O=[N+]([O-])c1ccc(C2=NC(C(F)(F)F)(C(F)(F)F)N=C(C(F)(F)F)O2)cc1 [Compound 10]
80

Moving on to the next compound: Nc1ccc(C2=NC(C(F)(F)F)(C(F)(F)F)N=C(C(F)(F)F)O2)cc1 [Compound 9]
90

----------
Test system: green foxtail (Setaria virdis (L.) Beauv.) (GF)
Assay: Preemergence herbicide test, soil drench, green foxtail
Assay type: in vivo
Conditions: Setaria, 336 h, 10 lbs/A (11.2 kg/ha) soil drench, two weeks after treatment, vs untreated checks, read-out: Percent Weed Control GF
Experimental: To illustrate the effectiveness of the previously described substituted oxadiazines of this invention as preemergence herbicides, 300 mg of the chemical was dissolved in a composition comprising 10 mL acetone to which 30 mg of tile emulsifying agent, ethoxylated sorbitan monolaurate, was added. The solution was diluted to 100 mL with distilled water. […] The percent control of the weeds compared to untreated checks was determined two weeks after treatment. […]
property: pest or weed control at 11208.5 g/ha
Show the value, then the unit it is measured in.

These solved cases illustrate the format of a correct answer.
compound: FC(F)(F)c1cc(C2=NC(C(F)(F)F)(C(F)(F)F)N=C(C(F)(F)C(F)(F)F)O2)cc(C(F)(F)F)c1 [Compound 18]
pest or weed control at 11208.5 g/ha: 100%
//
compound: FC(F)(F)C(F)(F)C1=NC(C(F)(F)F)(C(F)(F)F)N=C(c2ccccc2)O1 [Compound 11]
pest or weed control at 11208.5 g/ha: 50%
//
compound: FC(F)(F)Oc1ccc(C2=NC(C(F)(F)F)(C(F)(F)F)N=C(C(F)(F)F)O2)cc1 [Compound 8]
pest or weed control at 11208.5 g/ha: 100%
//
compound: FC(F)(F)C(F)(F)C1=NC(C(F)(F)F)(C(F)(F)F)N=C(c2ccc(Br)cc2)O1 [Compound 25]
pest or weed control at 11208.5 g/ha: 100%
//
compound: FC(F)(F)C1=NC(C(F)(F)F)(C(F)(F)F)N=C(c2ccccc2)O1 [Compound 1]
pest or weed control at 11208.5 g/ha: 0%
//
compound: FC(F)(F)C(F)(F)C(F)(F)C1=NC(C(F)(F)F)(C(F)(F)F)N=C(c2ccc(Br)cc2)O1 [Compound 27]
pest or weed control at 11208.5 g/ha: 0%
//
compound: FC(F)(F)C1=NC(C(F)(F)F)(C(F)(F)F)N=C(c2cccc(Cl)c2)O1 [Compound 4]
pest or weed control at 11208.5 g/ha: 100%

Now consider a different compound.
Look up pest or weed control at 11208.5 g/ha for this compound: COc1cccc(C2=NC(C(F)(F)F)(C(F)(F)F)N=C(C(F)(F)C(F)(F)F)O2)c1 [Compound 23]
50%

----------
test system: green foxtail (Setaria virdis (L.) Beauv.) (GF); assay: Preemergence herbicide test, soil drench, green foxtail; assay type: in vivo; conditions: Setaria, 336 h, 10 lbs/A (11.2 kg/ha) soil drench, two weeks after treatment, vs untreated checks, read-out: Percent Weed Control GF
pest or weed control at 11208.5 g/ha values, listed per item
Supply the numeric figure in %, leaving out any unit text.

These solved cases illustrate the format of a correct answer.
compound: Fc1ccccc1C1=NC(C(F)(F)F)(C(F)(F)F)N=C(C(F)(F)F)O1 [Compound 3]
pest or weed control at 11208.5 g/ha (%): 40
//
compound: Cc1cccc(C2=NC(C(F)(F)F)(C(F)(F)F)N=C(C(F)(F)C(F)(F)F)O2)c1 [Compound 22]
pest or weed control at 11208.5 g/ha (%): 50
//
compound: Fc1ccc(C2=NC(C(F)(F)F)(C(F)(F)F)N=C(C(F)(F)C(F)(F)F)O2)cc1Cl [Compound 20]
pest or weed control at 11208.5 g/ha (%): 100

Now consider a different compound.
Look up pest or weed control at 11208.5 g/ha for this compound: FC(F)(F)C(F)(F)C1=NC(C(F)(F)F)(C(F)(F)F)N=C(c2cccc(Cl)c2)O1 [Compound 13]
100

----------
system: switchgrass (Panicum virgahim L.) (SG); experiment: Preemergence herbicide test, soil drench, switchgrass; type: in vivo; conditions: Panicum, 336 h, 10 lbs/A (11.2 kg/ha) soil drench, two weeks after treatment, vs untreated checks, read-out: Percent Weed Control SG
pest or weed control at 11208.5 g/ha values, listed per item
Supply the numeric figure in %, leaving out any unit text.

These solved cases illustrate the format of a correct answer.
molecule: Cc1cccc(C2=NC(C(F)(F)F)(C(F)(F)F)N=C(C(F)(F)C(F)(F)F)O2)c1
unitSymbol: %
pest or weed control at 11208.5 g/ha: 0
--
molecule: FC(F)(F)Oc1ccc(C2=NC(C(F)(F)F)(C(F)(F)F)N=C(C(F)(F)F)O2)cc1
unitSymbol: %
pest or weed control at 11208.5 g/ha: 100
--
molecule: FC(F)(F)C(F)(F)C(F)(F)C1=NC(C(F)(F)F)(C(F)(F)F)N=C(c2ccc(Br)cc2)O1
unitSymbol: %
pest or weed control at 11208.5 g/ha: 0
--
molecule: Fc1cc(F)cc(C2=NC(C(F)(F)F)(C(F)(F)F)N=C(C(F)(F)C(F)(F)F)O2)c1
unitSymbol: %
pest or weed control at 11208.5 g/ha: 100
--
molecule: FC(F)(F)C(F)(F)C1=NC(C(F)(F)F)(C(F)(F)F)N=C(c2ccccc2Cl)O1
unitSymbol: %
pest or weed control at 11208.5 g/ha: 75

Look up pest or weed control at 11208.5 g/ha for this molecule: FC(F)(F)C1=NC(C(F)(F)F)(C(F)(F)F)N=C(c2cccc(Cl)c2)O1
100

Moving on to the next molecule: FC(F)(F)C(F)(F)C1=NC(C(F)(F)F)(C(F)(F)F)N=C(c2cccc(Cl)c2)O1
100

Moving on to the next molecule: FC(F)(F)C(F)(F)C1=NC(C(F)(F)F)(C(F)(F)F)N=C(c2ccc(Cl)cc2)O1
100

Moving on to the next molecule: O=[N+]([O-])c1ccc(C2=NC(C(F)(F)F)(C(F)(F)F)N=C(C(F)(F)F)O2)cc1
80

Moving on to the next molecule: FC(F)(F)C(F)(F)C1=NC(C(F)(F)F)(C(F)(F)F)N=C(c2cc(Cl)cc(Cl)c2)O1
100

Moving on to the next molecule: FC(F)(F)C(F)(F)C(F)(F)C1=NC(C(F)(F)F)(C(F)(F)F)N=C(c2ccccc2)O1 [reference compound]
0

Moving on to the next molecule: Nc1ccc(C2=NC(C(F)(F)F)(C(F)(F)F)N=C(C(F)(F)F)O2)cc1
90
